Below: a set of entries, each annotated with reported protein stability index.
B1: CDC14A (parent)
chain: LNLAMVYRYCCKLNKKLKSYSLSR

variants of: B1; assay: protein stability index of a GFP-peptide fusion (GPS, HEK-293T) (PSI 1-6); higher = more stable; details: c terminus: a fixed tail appended;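 note: lentivirally expressed fusions sorted by FACS into six bins by GFP to DsRed ratio, PSI derived from sequencing read proportions per bin multiplied by bin number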
READOUT KIND: protein stability index

[[record]]
variant_name = "R8S"
readout_kind = "protein stability index"
measured_value = 2.98

[[record]]
variant_name = "C11I"
readout_kind = "protein stability index"
measured_value = 3.23

[[record]]
variant_name = "L22W"
readout_kind = "protein stability index"
measured_value = 2.76

[[record]]
variant_name = "K16N"
readout_kind = "protein stability index"
measured_value = 2.32

[[record]]
variant_name = "C11N"
readout_kind = "protein stability index"
measured_value = 3.24

[[record]]
variant_name = "A4R"
readout_kind = "protein stability index"
measured_value = 3.08

[[record]]
variant_name = "Y7C"
readout_kind = "protein stability index"
measured_value = 2.73

[[record]]
variant_name = "N14P"
readout_kind = "protein stability index"
measured_value = 4.59

[[record]]
variant_name = "C10K"
readout_kind = "protein stability index"
measured_value = 1.65

[[record]]
variant_name = "S19L"
readout_kind = "protein stability index"
measured_value = 2.5

[[record]]
variant_name = "R8V"
readout_kind = "protein stability index"
measured_value = 3.11

[[record]]
variant_name = "C10H"
readout_kind = "protein stability index"
measured_value = 3.62

[[record]]
variant_name = "R24P"
readout_kind = "protein stability index"
measured_value = 2.59

[[record]]
variant_name = "K16G"
readout_kind = "protein stability index"
measured_value = 3.28

[[record]]
variant_name = "L17C"
readout_kind = "protein stability index"
measured_value = 4.4

[[record]]
variant_name = "C10N"
readout_kind = "protein stability index"
measured_value = 1.95

[[record]]
variant_name = "S21E"
readout_kind = "protein stability index"
measured_value = 3.12

[[record]]
variant_name = "K15L"
readout_kind = "protein stability index"
measured_value = 3.39

[[record]]
variant_name = "V6E"
readout_kind = "protein stability index"
measured_value = 1.76

[[record]]
variant_name = "L22K"
readout_kind = "protein stability index"
measured_value = 2.39

[[record]]
variant_name = "R24M"
readout_kind = "protein stability index"
measured_value = 2.37

[[record]]
variant_name = "V6F"
readout_kind = "protein stability index"
measured_value = 5.59

[[record]]
variant_name = "K15I"
readout_kind = "protein stability index"
measured_value = 3.62

[[record]]
variant_name = "S19I"
readout_kind = "protein stability index"
measured_value = 3.03

[[record]]
variant_name = "L17A"
readout_kind = "protein stability index"
measured_value = 2.65

[[record]]
variant_name = "N2V"
readout_kind = "protein stability index"
measured_value = 1.82

[[record]]
variant_name = "M5W"
readout_kind = "protein stability index"
measured_value = 3.48

[[record]]
variant_name = "S23I"
readout_kind = "protein stability index"
measured_value = 3.46

[[record]]
variant_name = "N2L"
readout_kind = "protein stability index"
measured_value = 2.17

[[record]]
variant_name = "L22E"
readout_kind = "protein stability index"
measured_value = 1.85

[[record]]
variant_name = "L13K"
readout_kind = "protein stability index"
measured_value = 1.56

[[record]]
variant_name = "L22G"
readout_kind = "protein stability index"
measured_value = 3.46

[[record]]
variant_name = "R24G"
readout_kind = "protein stability index"
measured_value = 2.21

[[record]]
variant_name = "R24S"
readout_kind = "protein stability index"
measured_value = 2.19

[[record]]
variant_name = "K15E"
readout_kind = "protein stability index"
measured_value = 3.47

[[record]]
variant_name = "K15A"
readout_kind = "protein stability index"
measured_value = 2.87

[[record]]
variant_name = "K18N"
readout_kind = "protein stability index"
measured_value = 2.77

[[record]]
variant_name = "K12D"
readout_kind = "protein stability index"
measured_value = 1.81

[[record]]
variant_name = "L13W"
readout_kind = "protein stability index"
measured_value = 1.96

[[record]]
variant_name = "R24T"
readout_kind = "protein stability index"
measured_value = 1.99

[[record]]
variant_name = "Y7I"
readout_kind = "protein stability index"
measured_value = 3.1

[[record]]
variant_name = "S19D"
readout_kind = "protein stability index"
measured_value = 2.28

[[record]]
variant_name = "Y9I"
readout_kind = "protein stability index"
measured_value = 2.02

[[record]]
variant_name = "L3S"
readout_kind = "protein stability index"
measured_value = 2.2

[[record]]
variant_name = "L22I"
readout_kind = "protein stability index"
measured_value = 3.6

[[record]]
variant_name = "Y7S"
readout_kind = "protein stability index"
measured_value = 3.42

